- System: HOP-62
- test-protocol: NCI tumour cell line growth inhibition, 48 h
Calls of active or inactive are those of the source. Cut-off read from the data, not from the text of the source: active = GI50 up to about 1.1 µM and inactive = higher. Square brackets hold non-standard residues; d marks the D form. Peptide text beside a SMILES is read from it. Ac5c = NC1(C(=O)O)CCCC1
measured-property: GI50

Example molecules with recorded GI50:
[
  {
    "molecule": "CCCC1NC(=O)C(CC(C)C)NC(=O)c2cccc(n2)C(=O)NC(CC(C)C)C(=O)NC(CCC)C(=O)NC(C(=O)OC)CCCCNC1=O (stereo unspecified)",
    "value-observed": "81.3 µM (inactive)"
  },
  {
    "molecule": "O=C1/C(=C/c2cccc(Oc3ccccc3)c2)N=C(c2ccccc2)N1c1nc2ccc(Sc3ccccc3)cc2[nH]1",
    "value-observed": "28.4 µM (inactive)"
  },
  {
    "molecule": "c1ccc(CNc2ccc3[nH]c4cnccc4c3c2)cc1",
    "value-observed": "17.2 µM (inactive)"
  },
  {
    "molecule": "NCC(=O)NC1(C(=O)O)CCCC1 (H-Gly-[Ac5c]-OH)",
    "value-observed": "> 100 µM (inactive)"
  },
  {
    "molecule": "O=c1cc(N2CCOCC2)[nH]c(=O)n1-c1ccc(F)cc1",
    "value-observed": "> 100 µM (inactive)"
  }
]

Lookup: GI50 / HOP-62 / `COC(=O)/C=C\C(C#N)(C#N)/N=C/c1ccc(Br)s1` 17.6 µM (inactive)

CCOC1NC(/N=C/c2ccc(OC)cc2)=C(C#N)C1C#N (stereo unspecified) , same question. > 100 µM (inactive)

What about this molecule? `N#Cc1cc(N(CCCl)CCCl)c([N+](=O)[O-])cc1[N+](=O)[O-]` > 100 µM (inactive)

Note, next up: `Cc1occc(=O)c1O` > 100 µM (inactive)

And the next one, `O=c1c2cccnc2[nH]c2ccc3cn[nH]c3c12` ? > 10 µM (inactive)

NC(=O)C(c1ccccc1)N1OC2C(=O)N(c3cccc4ccccc34)C(=O)C2C1c1c2ccccc2c(Cl)c2ccccc12 (stereo unspecified) , same question. 11 µM (inactive)

// repeat for `Clc1ncnc2c1ncn2CCCCCCCCCCCCn1cnc2c(Cl)ncnc21` and report 18.6 µM (inactive)

Would you mind doing `CC(C)/C(Cl)=N/OC(=O)Nc1ccc(OC(F)(F)F)cc1` as well? 17.7 µM (inactive)

What about `O=C1OC(c2ccco2)=N/C1=C\c1ccc(Cl)c(Cl)c1` ? 27.4 µM (inactive)

Also need COC(=O)c1ccccc1CC1Cc2cccc(C)c2C1=O (stereo unspecified) , thanks. > 100 µM (inactive)

Let us now turn to `O=C(O)CSC1=NCCN1` > 100 µM (inactive)

---

- System: SF-539
- test-protocol: NCI tumour cell line growth inhibition, 48 h
Calls of active or inactive are those of the source. No stated cut-off is given here; in the data, active = GI50 up to about 1.1 µM and inactive = higher.
measured-property: GI50

[
  {
    "smiles-representation": "N#Cc1c(N)[nH]c(=S)c(C#N)c1-c1cccc(Cl)c1",
    "target-of-assay": "SF-539",
    "GI50": "49.2 µM (inactive)"
  },
  {
    "smiles-representation": "COC(=O)C1=C(C(=O)OC)SC2(S1)C1=C(CCC1)SC(C(=O)OC)=C2C(=O)OC",
    "target-of-assay": "SF-539",
    "GI50": "1.48 µM (inactive)"
  },
  {
    "smiles-representation": "Cc1cccc(C)c1NC(=O)CCc1nnc(S)[nH]1",
    "target-of-assay": "SF-539",
    "GI50": "> 100 µM (inactive)"
  }
]

Entry `CC1=NN2C(=N)/C(=C/c3ccco3)C(=O)N=C2S1` : reported GI50 = ? > 100 µM (inactive)

Next entry: `CCCCSC1=N/C(=C\c2ccc(N(C)C)cc2)C(=O)N1` 24.5 µM (inactive)

Values compiled from ChEMBL document CHEMBL1201862.
